Target: hGcgR (Homo sapiens, UniProt P47871)
Sequence (P47871 26-477): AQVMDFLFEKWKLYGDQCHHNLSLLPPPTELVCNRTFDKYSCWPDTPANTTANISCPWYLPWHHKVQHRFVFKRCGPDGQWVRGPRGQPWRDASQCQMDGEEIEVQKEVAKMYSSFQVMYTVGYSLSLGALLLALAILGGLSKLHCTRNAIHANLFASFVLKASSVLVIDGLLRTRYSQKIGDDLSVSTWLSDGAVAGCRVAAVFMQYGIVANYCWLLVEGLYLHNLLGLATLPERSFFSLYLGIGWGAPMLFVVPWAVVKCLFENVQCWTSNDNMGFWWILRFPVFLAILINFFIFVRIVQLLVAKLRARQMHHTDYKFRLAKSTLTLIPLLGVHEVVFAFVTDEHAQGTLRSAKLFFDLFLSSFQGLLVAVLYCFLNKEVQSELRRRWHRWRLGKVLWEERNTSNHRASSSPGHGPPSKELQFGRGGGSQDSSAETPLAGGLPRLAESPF
Assay: Functional cAMP activation in the presence of 0.1% casein (no HSA);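 also: intracellular cAMP rise after 30 min at 37 °C, read by HTRF against a cAMP standard curve, scaled from buffer only (0%) to maximal control ligand response (100%)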
Assay type: cell-based
Details: read-out: Relative cAMP EC50, hGcgR
Starred links: 1 amine or outer side, 2 acyl side, 3 side chain; linkers in the order of their positions; H or OH if unused. Non-standard residues stand in square brackets, D forms with d. Groups on a side chain read outwards from the residue. No end group written: not given here. *: point of attachment. C18 diacid = O=C(O)CCCCCCCCCCCCCCCCC(=O)*; αMePhe(2-F) = C[C@](N)(Cc1ccccc1F)C(=O)O; γGlu = O=C(O)[C@H](CCC(=O)[*:2])N[*:1]; αMe4Pal = C[C@](N)(Cc1ccncc1)C(=O)O; αMeY = C[C@](N)(Cc1ccc(O)cc1)C(=O)O; 4Pal = N[C@@H](Cc1ccncc1)C(=O)O; αMeL = CC(C)C[C@](C)(N)C(=O)O; αMeS = C[C@](N)(CO)C(=O)O; Orn = NCCC[C@H](N)C(=O)O; AEEA = NCCOCCOCC(=O)O; Aib = CC(C)(N)C(=O)O
For each record, write down the corresponding EC50.
// units = nM; emit number, no label

Data request, read-out EC50, for Y[Aib]QGT[αMePhe(2-F)]TSD[4Pal]SILLDKK([γGlu-γGlu-C18 diacid])AQ[Aib]AFIEYLQEGGPSSGAPPPSGTEE-NH2 [Example 580]
7.27

Also H-Y[Aib]QGT[αMePhe(2-F)]TSD[4Pal][αMeS]I[αMeL]LD[Orn]K([AEEA-γGlu-C18 diacid])AQ[Aib][Orn]FIEYLIEGGPSSGEPPPEEG-NH2 [Example 476] , if possible.
1.34

Also H-Y[Aib]QGT[αMePhe(2-F)]TSD[4Pal][αMeS]I[αMeL]LD[Orn]K([AEEA-γGlu-C18 diacid])AQ[αMe4Pal]EFI[dE][αMeY]LIEGGPSSGEPPPSGS-NH2 [Example 710] , if possible.
1.52

Also H-Y[Aib]QGT[αMePhe(2-F)]TSD[4Pal][αMeS]I[αMeL]LD[Orn]K([AEEA-γGlu-C18 diacid])AA[Aib]EFI[dE][αMeY]LIEGGPSSGAPPPSGTEE-NH2 [Example 725] , if possible.
1.49

Also Y[Aib]QGT[αMePhe(2-F)]TSD[4Pal][αMeS]I[αMeL]LD[Orn]K([γGlu-γGlu-C18 diacid])AQ[Aib]QFI[dE][αMeY]LQEGGPSSGEPPPEGTE-NH2 [Example 528] , if possible.
7

Also H-Y[Aib]QGT[αMePhe(2-F)]TSD[4Pal][αMeS]I[αMeL]LD[Orn]K([AEEA-γGlu-C18 diacid])AQ[αMe4Pal]EFI[dE][αMeY]LVEGGPSSGAPPPSGSE-NH2 [Example 751] , if possible.
1.9

Also H-Y[Aib]QGT[αMePhe(2-F)]TSD[4Pal]SI[αMeL]LD[Orn]K([AEEA-γGlu-C18 diacid])AQ[αMe4Pal]EFI[dE][αMeY]LAEGGPSSGAPPPSGS-NH2 [Example 642] , if possible.
3.49

Also H-Y[Aib]QGT[αMePhe(2-F)]TSD[4Pal][αMeS]I[αMeL]LD[Orn]K([γGlu-γGlu-C18 diacid])AQ[αMe4Pal]EFI[dE][αMeY]LIEGGPSSGAPPPEGGGE-NH2 [Example 761] , if possible.
1.5

Also H-Y[Aib]QGT[αMePhe(2-F)]TSD[4Pal]SILLDKK([γGlu-γGlu-C18 diacid])AQ[Aib]AFIEYLEEGGPSSGEPPPSGTEE-NH2 [Example 608] , if possible.
7.82

Also H-Y[Aib]QGT[αMePhe(2-F)]TSD[4Pal][αMeS]I[αMeL]LD[Orn]K([γGlu-γGlu-C18 diacid])AQ[αMe4Pal]EFI[dE][αMeY]LIEGGPSSGEPPPSGSE-NH2 [Example 716] , if possible.
1.12

All values here come from patent US20240270821A1.
